Value source: patent US20250101038A1

molecular target: 5-HT2B receptor (Homo sapiens); construct: host or cells: CHO-K1; experiment: cell-based; conditions: agonist activity, Ca2+ flux, CHO-K1 cells
Sequence (P41595 whole entry): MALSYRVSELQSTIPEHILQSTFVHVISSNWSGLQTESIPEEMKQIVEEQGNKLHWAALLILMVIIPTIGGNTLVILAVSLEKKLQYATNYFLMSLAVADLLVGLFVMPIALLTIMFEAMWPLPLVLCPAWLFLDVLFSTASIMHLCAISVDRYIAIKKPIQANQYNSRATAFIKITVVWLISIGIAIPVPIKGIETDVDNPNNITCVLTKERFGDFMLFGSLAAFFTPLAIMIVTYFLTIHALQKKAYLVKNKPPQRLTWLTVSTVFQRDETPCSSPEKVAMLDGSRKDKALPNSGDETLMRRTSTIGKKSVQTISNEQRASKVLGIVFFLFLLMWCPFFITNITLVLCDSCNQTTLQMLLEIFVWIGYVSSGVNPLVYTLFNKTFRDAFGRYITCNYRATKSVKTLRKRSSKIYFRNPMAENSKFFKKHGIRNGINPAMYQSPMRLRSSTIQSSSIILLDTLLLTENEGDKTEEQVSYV
Value type: Emax (%)
Express the result in % but write the number alone.

Here are 5 compounds together with their reported answers.
COc1cc(F)cc2[nH]cc(CCN(C)C)c12 :: 0.17
COc1cc2c(CCN(C)C(C)C)c[nH]c2cc1C :: 7.11
CCCN(CCC)CCc1c[nH]c2c(C)cc(OC)cc12 :: 9.45
CCN(CCc1c[nH]c2cc(F)cc(OC)c12)C(C)C :: 116
CCCN(C)CCc1c[nH]c2c(C)ccc(O)c12 :: -0.14

// recorded Emax for CN(C)CCc1c[nH]c2cc3occc3cc12 : 4.68

// recorded Emax for CCN(CC)CCc1c[nH]c2c(C)ccc(O)c12 : -0.07

// recorded Emax for CCCN(CCC)CCc1c[nH]c2ccc(C)c(O)c12 : 64.3

// recorded Emax for CCN(C)CCc1c[nH]c2cc(C)c(OC)cc12 : 8.39

// recorded Emax for CCN(CCc1c[nH]c2cc(C)c(OC)cc12)C(C)C : 43.2

// recorded Emax for CC(C)N(C)CCc1c[nH]c2c(F)c(F)ccc12 : 1.6

// recorded Emax for COc1c(C)ccc2[nH]cc(CCN(C)C)c12 : 17.3
